Attribution: PubChem BioAssay AID1159580

# ASSAY_DETAILS: chemical genetic growth profiling, strain panel (AID 1159580);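 also: tested at 20 µM; growth read once vehicle control cultures reached saturation at 30 °C; lower values mean less growth of the strain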
# CONDITION_NOTES: S. cerevisiae deletion strains, growth OD, locus YOL147C, strain pex11
Screen size: about 5,500 compounds; about 2,000 (36%) were called active. Another 18% or so got no clear call; they are omitted. Rule as the data show it: active = normalized growth mostly below about 0.91 (no sharp cut-off); inconclusive = no clear call, values can overlap the other calls; inactive = mostly above about 0.92. The list shows a part of the results.
Return exactly one item of active, inactive

Lookup: Outcome? COC1(C)CCC2OC2(C)CCC2C1CC2(C)C (centres undefined)
Found: inactive

Next:
Lookup: Outcome? COC(=O)[C@]1(C)CC[C@]2(C)CC[C@]3(C)C4=CC=C5C(=CC(=O)C(O)=C5C)[C@]4(C)CC[C@@]3(C)[C@@H]2C1
Found: active

Lookup: Outcome? CC(=O)c1cc2c(cc1O)OC(C)(C)C=C2
Found: inactive

Lookup: Outcome? COc1cc2cc3c4cc(OC)c(OC)cc4cc[n+]3c(C)c2cc1OC
Found: inactive

Lookup: Outcome? CC1(C)C(=O)[C@@H]2C[C@@]3(O)C4=CC(=O)O[C@@H](c5ccoc5)[C@]4(C)CCC3[C@@](C)(C2=O)[C@H]1CC(=O)O (some centres undefined)
Found: inactive

Lookup: Outcome? CCOc1cccc(C(=O)c2ccc(O)c(O)c2O)c1
Found: active
